- Tested on: SNB-75 CNS
- assay.name: NCI-60 one-dose screen, 48 h
- condition.description: 10 µM
The panel holds about 83,000 compounds, 20% with a hit somewhere; the sample as a whole holds those more often. Calls of active or inactive are those of the source. The calls were made as follows: active = growth percent below 10; inactive = the rest.
Pick one and only one: active, inactive

Cc1ccc(S(=O)(=O)N2CCN(S(=O)(=O)c3oc(-c4ccccc4)nc3C#N)CC2)cc1 ... inactive

Record lookup: outcome of this test for O=C(O)CCN1C(=O)/C(=C/C=C/c2ccc([N+](=O)[O-])o2)SC1=S ?
inactive

Record lookup: outcome of this test for Cn1cc(-c2nc(N)nnc2-c2c[nH]c3ccccc23)c2cc(Br)cnc21 ?
active

Record lookup: outcome of this test for Cc1cc(N=C2NC(=O)S/C2=C\c2ccc(F)cc2)n[nH]1 ?
active

Record lookup: outcome of this test for COc1cc(Nc2nc(O)c(/C=C3\C=Nc4ccccc43)s2)cc(OC)c1OC ?
active

Record lookup: outcome of this test for CCOc1ccc(/C=N/NC(=O)Cn2nc(Cc3ccc(OC)cc3)c3onc(C)c3c2=O)cc1 ?
active

Record lookup: outcome of this test for O=C(Nc1ccc(OCc2ccc(F)cc2)cc1)Nc1ccc(Cl)c(C(F)(F)F)c1 ?
inactive

Record lookup: outcome of this test for COc1ccc2[nH]cc(-c3nc(N)nnc3-c3cn(C)c4ncc(Br)cc34)c2c1 ?
inactive

Record lookup: outcome of this test for COc1ccc(C(=O)COc2ccc(NC(=O)Nc3ccc(Cl)c(C(F)(F)F)c3)cc2)cc1 ?
inactive

Record lookup: outcome of this test for CCOC(=O)c1ccc(NC(=O)CSC(CC(=O)c2sc(Nc3ccccn3)nc2C)c2ccccc2F)cc1 (centres undefined) ?
active

Record lookup: outcome of this test for C#C[C@]1(O)CC[C@H]2[C@@H]3CC=C4c5sc(Nc6ccc(N(C)C)cc6)nc5CC[C@]4(C)[C@H]3CC[C@@]21C ?
inactive

Record lookup: outcome of this test for O=C(c1ccc(Cl)cc1)C(c1c[nH]c2ccccc12)c1c[nH]c2ccccc12 ?
inactive

Record lookup: outcome of this test for O=C(Nc1ccc(OCC(=O)c2ccc(Cl)cc2)cc1)Nc1ccc(Cl)c(C(F)(F)F)c1 ?
inactive

Record lookup: outcome of this test for O=C1S/C(=C\c2ccc([N+](=O)[O-])cc2)C(=O)N1CCN1CCCCC1 ?
inactive

Record lookup: outcome of this test for C#C[C@]1(O)CC[C@H]2[C@@H]3CC=C4c5sc(Nc6cc(C)cc(C)n6)nc5CC[C@]4(C)[C@H]3CC[C@@]21C ?
inactive

Record lookup: outcome of this test for Cc1ccc(COc2ccc(NC(=O)Nc3ccc(Cl)c(C(F)(F)F)c3)cc2)cc1 ?
inactive

---

- System: MDA-MB-468 breast
- assay.name: NCI-60 one-dose screen, 48 h
- condition.description: 10 µM unless noted
The panel holds about 83,000 compounds, 20% with a hit somewhere; the sample as a whole holds those more often. Activity calls are given as the source filed them. Rule for the calls: active = growth percent below 10; inactive = the rest.
Pick one and only one: y = active, n = inactive

Sample answers from the record:
Cc1ccc(-c2nc(C#N)c(S(=O)(=O)N3CCN(S(C)(=O)=O)CC3)o2)cc1 ... y
N#Cc1cccc(-c2c(-c3ccc4ccccc4c3)oc3ccccc3c2=O)c1 ... y
COc1ccc(-c2conc2-c2ccccc2)cc1 ... y

Record lookup: outcome of this test for Clc1cc(Cl)c2nc(-c3ccc(-c4ccc(/C=N/NC5=NCCN5)cc4)s3)cn2c1 ?
n

Record lookup: outcome of this test for NS(=O)(=O)c1ccc(CCn2c(SCC(=O)N/N=C/c3ccccc3O)nc3ccccc3c2=O)cc1 ?
n

Record lookup: outcome of this test for CCOC(=O)c1sc(Nc2ccc(Cl)cc2)nc1C ?
y

Record lookup: outcome of this test for N=C(N)c1ccc(-c2ccc(-c3cncc4ccccc34)s2)cc1F ?
y

Record lookup: outcome of this test for COC(=O)[C@]1(CCSC)N[C@H](c2cn(-c3ccccc3)nc2C)[C@@H]2C(=O)N(c3ccc(C)cc3)C(=O)[C@@H]21 ?
n

---

- System: MDA-MB-468 breast
- assay.name: NCI-60 one-dose screen, 48 h (100 = growth as untreated, 0 = no growth, -100 = all killed)
- condition.description: 10 µM unless noted
Compounds without any hit were thinned out: in the full panel of roughly 83,000, 20% have a hit.
growth reference
Form entry: value (%) — number only.

Examples with answers:
Brc1ccc(-c2nn(-c3ccccc3)cc2-c2nn[nH]n2)s1 ... 98.8
CCN1C(=O)N(CC)C2C1NN=c1s/c(=C\c3ccc(Br)cc3)c(=O)n12 (centres undefined) ... 7.21
Cc1nc(Cl)cc(N(c2cc(Cl)nc(C)n2)c2ncc(C(=O)Nc3c(C)cccc3Cl)s2)n1 ... 42.1
COc1cc(NC(=O)C#Cc2ccccc2)c(OC)cc1Cl ... 70.9
Cc1ccc(C2=NN3C(C2)c2cc(Br)ccc2OC32CCN(Cc3ccccc3)CC2)o1 (centres undefined) ... 105
CC(C)[N+]1(C)C2CC[C@@H]1CC(OC(=O)C(CO)c1ccccc1)C2 (some centres undefined) ... 109
CCN(Cc1ccccc1)C1CCN(Cc2cc(Br)ccc2O)CC1 ... 25.5
C#CC[C@@H]1C[C@]2(C)[C@H]3CC=C4[C@H]5[C@@H](C)[C@H](C)CC[C@]5(C(=O)NCCCCN)CC[C@@]4(C)[C@]3(C)CC[C@H]2C(C)(C)[C@H]1OC(C)=O ... 81

# growth (compound: Cc1ccc(-c2nc3ccccc3c(=O)n2/N=C/c2cccc3ccccc23)cc1 ) is 80.9

---

- Tested on: CCRF-CEM leukemia
- assay.name: NCI-60 one-dose screen, 48 h (100 = growth as untreated, 0 = no growth, -100 = all killed)
- condition.description: 10 µM
The panel holds about 83,000 compounds, 20% with a hit somewhere; the sample as a whole holds those more often.
readout: growth (%)
Form entry: value (%) — number only.

Examples with answers:
O=C1NC2C=CC=CC2/C1=C1/SC(=S)N(C2CC(=O)N(c3ccc(Br)cc3)C2=O)C1=O (centres undefined) ... 53.9
COc1ccc2[nH]cc(-c3nc(N)nnc3-c3cn(C)c4ncc(Br)cc34)c2c1 ... 1.4
O=C(CN1CCN(c2ncnc3c2cnn3-c2ccccc2)CC1)Nc1ccc(Cl)cc1 ... 51.9
COc1ccc(-n2c(SCC(=O)NNS(=O)(=O)c3ccccc3)nc3ccc(Cl)cc3c2=O)cc1 ... 108

Kindly consider the entry below.
# growth (compound: C#C[C@]1(O)CC[C@H]2[C@@H]3CC=C4c5sc(Nc6cc(C)cc(C)n6)nc5CC[C@]4(C)[C@H]3CC[C@@]21C ) is 5

---

growth reference
- Tested on: MDA-MB-468 breast
- assay.name: NCI-60 one-dose screen, 48 h (100 = growth as untreated, 0 = no growth, -100 = all killed)
- condition.description: 10 µM unless noted
The panel holds about 83,000 compounds, 20% with a hit somewhere; the sample as a whole holds those more often.
Form entry: value (%) — number only.

COc1c(CCC[P+](c2ccccc2)(c2ccccc2)c2ccccc2)cc2c(c1OC)OCO2 ... -28
COc1cc2nc(Nc3cccc(Cl)c3)nc(N)c2cc1OC ... 26.8
COc1cccc(N2CCN(c3ncnc4c3[nH]c3ccc(F)cc34)C[C@H]2C)c1 ... 27.5

Considering CCC(C)Nc1ccc(NC(C)CC)cc1 (stereo not given) , its growth with MDA-MB-468 breast was recorded as 8.07

Considering NC(=N\N=C/c1ccc(O)cc1)/C(N)=N\N=C/c1ccc(O)cc1 , its growth with MDA-MB-468 breast was recorded as 103

Considering CNC(=O)c1cc(Oc2cccc3nc(NC(=O)Nc4cc(C(F)(F)F)cc(C(F)(F)F)c4)ccc23)ccn1 , its growth with MDA-MB-468 breast was recorded as 32

Considering COc1cc2cc3cc4cc(OC)c(OC)cc4c(C)[n+]3cc2cc1OC (tested in a mixture with another compound) , its growth with MDA-MB-468 breast was recorded as 44

Considering CCNC(=O)N1CCc2cc(OC)c(OCCc3ccc(OC)nc3)cc2C1c1ccc(C)cc1C (stereo not given) , its growth with MDA-MB-468 breast was recorded as 8.04

Considering CONC1=Nc2cc(NC(N)=NCc3ccccc3)c(N(C)C3CCCCC3)cc2OC1 , its growth with MDA-MB-468 breast was recorded as -23.4

Considering O=C(O)CSCc1nc2ccccc2[nH]1 , its growth with MDA-MB-468 breast was recorded as 118

---

- Tested on: MDA-MB-468 breast
- assay.name: NCI-60 one-dose screen, 48 h (100 = growth as untreated, 0 = no growth, -100 = all killed)
- condition.description: 10 µM unless noted
Compounds without any hit were thinned out: in the full panel of roughly 83,000, 20% have a hit.
readout: growth (%)
Form entry: value (%) — number only.

CCn1c(C)nc2cc(C(N)=O)ccc21 ... 102
COc1ccc2c(c1)c(-c1nn3cc(-c4cccs4)nc3s1)cn2C ... 71.5
O=C(c1ccccc1)c1ccc(N2C(=O)C3C4c5ccccc5C(/C=C/C(=O)c5ccccn5)(c5ccccc54)C3C2=O)cc1 (stereo not given) ... 21.9
FC(F)(F)c1cc(-c2nnc3n2N=C(Cl)CS3)cc(C(F)(F)F)c1 ... 84.4
CCC(CC)N1C(=O)/C(=c2\sc3n(c2=O)C2C(NN=3)N(CC)C(=O)N2CC)c2ccccc21 (stereo not given) ... 42.8
C=C(C)[C@@H]1CC[C@]2(C(=O)NC(COC(=O)C(Cl)Cl)(COC(=O)C(Cl)Cl)COC(=O)C(Cl)Cl)CC[C@]3(C)[C@H](CC[C@@H]4[C@@]5(C)CC[C@H](OC(C)=O)C(C)(C)[C@@H]5CC[C@]43C)[C@@H]12 ... 61.7
O=C1CSC(c2ccccc2Cl)N1c1nnc(-c2ccncc2)o1 (stereo not given) ... 98.4
CN(CSc1ccc(Cl)cc1)c1ccc(CSc2ccc(Cl)cc2)cc1 ... 17.2
O=C(O)c1ccc2c(c1)C(=O)N(Cc1ccccc1)C2=O ... 96.2
COc1cc(-c2nc(N=Nc3c(O)[nH]c4ccc(Br)cc34)[nH]c(=O)c2C#N)cc(OC)c1OC ... 103

Kindly consider the entry below.
# growth (molecule: COc1ccc(-c2ccc3cc(C(=O)Nc4ccc(O)c(C(=O)/C=C/c5cc(OC)c(OC)c(OC)c5)c4)ccc3c2)cc1 ) is 82.2
